pKd values by entry
# Target Under Test: feline FcRn complex (FcRn-α subunit and β-microglobulin) (feline)
# Experiment Summary: SPR (Biacore), FcRn on SA chip, pH 6
pKd: −log10 of the molar value.
Measured Metric: pKd

>>> value("feline IgG1a mutant ID No. 344: S252Y, S428M, S434F, D401R (antibody, part only; not given: Variable domains, not shown: another chain or arm of the molecule) constant: ASTTAPSVFPLAPSCGTTSGATVALACLVLGYFPEPVTVSWNSGALTSGVHTFPAVLQASGLYSLSSMVTVPSSRWLSDTFTCNVAHPPSNTKVDKTVRKTDHPPGPKPCDCPKCPPPEMLGGPSIFIFPPKPKDTLYISRTPEVTCLVVDLGPDDSDVQITWFVDNTQVYTAKTSPREEQFNSTYRVVSVLPILHQDWLKGKEFKCKVNSKSLPSPIERTISKAKGQPHEPQVYVLPPAQEELSRNKVSVTCLIKSFHPPDIAVEWEITGQPEPENNYRTTPPQLDSRGTYFVYSKLSVDRSHWQRGNTYTCSVMHEALHFHHTQKSLTQSPGK")
10.89
>>> value("feline IgG1a mutant ID No. 356: S252Y, S428M, S434F, T403R (antibody, part only; not given: Variable domains, not shown: another chain or arm of the molecule) constant: ASTTAPSVFPLAPSCGTTSGATVALACLVLGYFPEPVTVSWNSGALTSGVHTFPAVLQASGLYSLSSMVTVPSSRWLSDTFTCNVAHPPSNTKVDKTVRKTDHPPGPKPCDCPKCPPPEMLGGPSIFIFPPKPKDTLYISRTPEVTCLVVDLGPDDSDVQITWFVDNTQVYTAKTSPREEQFNSTYRVVSVLPILHQDWLKGKEFKCKVNSKSLPSPIERTISKAKGQPHEPQVYVLPPAQEELSRNKVSVTCLIKSFHPPDIAVEWEITGQPEPENNYRTTPPQLDSDGRYFVYSKLSVDRSHWQRGNTYTCSVMHEALHFHHTQKSLTQSPGK")
10.60
